Molecular target: Succinic semialdehyde dehydrogenase (SSADH) (Homo sapiens)
Construct: recombinant SSADH, amino acids 48–535, N-terminal His-tag
Experiment: intrinsic fluorescence titration (excitation […] nm); CD and Tm shift of about […] °C in support
quantity.measured: pKd
# reply with the number alone; pKd is -log10 of concentration in mol/L

The reported value for NC(=O)c1ccc[n+]([C@@H]2O[C@H](COP(=O)([O-])OP(=O)(O)OC[C@H]3O[C@@H](n4cnc5c(N)ncnc54)[C@H](O)[C@@H]3O)[C@@H](O)[C@H]2O)c1 in terms of pKd is 5.55

* * *

Target: Succinic semialdehyde dehydrogenase (SSADH) (Homo sapiens, UniProt P51649, H180Y/N255D)
Construct: recombinant SSADH, amino acids 48–535, N-terminal His-tag
Sequence (P51649 48-535 H180Y/N255D): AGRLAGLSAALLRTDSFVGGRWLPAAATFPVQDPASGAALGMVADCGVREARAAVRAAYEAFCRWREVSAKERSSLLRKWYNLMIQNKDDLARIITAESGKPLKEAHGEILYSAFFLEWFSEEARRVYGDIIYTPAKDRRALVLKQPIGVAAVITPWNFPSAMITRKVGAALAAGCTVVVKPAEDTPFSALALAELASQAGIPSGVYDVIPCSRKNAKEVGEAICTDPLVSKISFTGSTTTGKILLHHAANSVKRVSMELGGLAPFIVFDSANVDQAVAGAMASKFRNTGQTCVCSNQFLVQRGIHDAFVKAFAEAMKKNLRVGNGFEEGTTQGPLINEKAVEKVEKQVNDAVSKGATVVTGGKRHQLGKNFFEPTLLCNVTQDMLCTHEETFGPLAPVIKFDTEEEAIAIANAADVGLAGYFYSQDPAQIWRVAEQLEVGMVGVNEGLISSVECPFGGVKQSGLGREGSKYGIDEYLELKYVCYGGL
Assay: intrinsic fluorescence titration (excitation […] nm)
quantity.measured: pKd
Hey, just a heads up that pKd is the negative log base 10 of the concentration in molar.

The compound NC(=O)c1ccc[n+]([C@@H]2O[C@H](COP(=O)([O-])OP(=O)(O)OC[C@H]3O[C@@H](n4cnc5c(N)ncnc54)[C@H](O)[C@@H]3O)[C@@H](O)[C@H]2O)c1 showed pKd equal to 4.48

Origin of measurements: paper PMC11121183
